# assay.system: RXFP1 (Homo sapiens, UniProt Q9HBX9)
# Construct: OVCAR5 cells expressing endogenous RXFP1; endogenous in cells; host or cells: OVCAR5 cells
# Sequence (Q9HBX9 whole entry): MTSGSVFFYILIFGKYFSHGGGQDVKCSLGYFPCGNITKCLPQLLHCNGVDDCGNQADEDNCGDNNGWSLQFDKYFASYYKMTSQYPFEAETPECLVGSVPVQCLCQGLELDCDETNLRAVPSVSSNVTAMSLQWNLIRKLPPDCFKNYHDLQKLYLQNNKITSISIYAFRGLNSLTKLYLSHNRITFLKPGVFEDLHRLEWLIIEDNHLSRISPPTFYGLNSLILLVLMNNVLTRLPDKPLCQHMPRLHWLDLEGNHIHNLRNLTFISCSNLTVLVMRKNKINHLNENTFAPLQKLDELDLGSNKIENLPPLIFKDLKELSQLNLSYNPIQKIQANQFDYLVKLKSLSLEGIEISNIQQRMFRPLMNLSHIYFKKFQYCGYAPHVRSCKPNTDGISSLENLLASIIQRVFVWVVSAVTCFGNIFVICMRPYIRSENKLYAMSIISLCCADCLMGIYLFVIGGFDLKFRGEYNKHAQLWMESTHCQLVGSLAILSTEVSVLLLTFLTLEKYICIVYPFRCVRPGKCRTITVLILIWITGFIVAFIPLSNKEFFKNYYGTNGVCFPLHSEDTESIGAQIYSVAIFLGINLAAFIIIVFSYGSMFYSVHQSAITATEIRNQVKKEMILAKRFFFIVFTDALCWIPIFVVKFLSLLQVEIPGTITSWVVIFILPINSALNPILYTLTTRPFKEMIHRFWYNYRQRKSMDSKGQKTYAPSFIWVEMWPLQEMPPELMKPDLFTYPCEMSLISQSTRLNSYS
# procedure.details: OVCAR5 cAMP assay (HTRF), RXFP1 agonist activity
# Type: cell-based
# test.conditions: OVCAR5 cells expressing endogenous RXFP1; cAMP readout, 30 min, 1 mM IBMX; read-out: EC50 cAMP assay in OVCAR 5 cells
measurement.name: EC50 (nM)

1 = H-VIKLSGRELVRAQIAISGMSTWSKRSL-NH2 [B7-33 C11.23S, reference compound]
2 = Ac-VIKLSGRELVRAQIAISGMSTWSKKKK-NH2 [KKKK(AcB7-29 C11.23S), reference compound]
Query :: // task: argmin of EC50 over [ 1 , 2 ] Output the label that corresponds to your choice.
Result :: 2
(2: 206 nM, 1: 1640 nM)

----------
# procedure.details: Stability testing of peptides in human plasma or blood
# Format: in vitro ADME
# test.conditions: human plasma, 1 h, 37° C., read-out: Human Plasma stability % remaining 1 h
measurement.name: remaining at 1 h, 5 µM (%)

substance="Ac-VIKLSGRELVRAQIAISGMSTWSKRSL-NH2 [AcB7-33 C11.23S, reference compound]" measurement_name="remaining at 1 h, 5 µM" test_value=67

a = H-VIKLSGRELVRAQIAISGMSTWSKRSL-NH2 [B7-33 C11.23S, reference compound]
b = Ac-VIKLSGRELVRAQIAISGMSTWSKKKK-NH2 [KKKK(AcB7-29 C11.23S), reference compound]
Query :: Of a and b , whose reported remaining at 1 h, 5 µM is numerically smaller? State your choice using its label.
Result :: a

----------
# procedure.details: Stability testing of peptides in rat plasma or blood
# Assay type: in vitro ADME
# test.conditions: rat plasma, 4 h, 37° C., read-out: Rat plasma stability % remaining 4 h
# Description: Prior to the testing of stability in plasma (or blood) of a peptide batch, its purity (HPLC-UV) was determined. Rat and Human plasma: anti-coagulant sodium or lithium heparin. […] For determination of the amount of the remaining peptide, the peak areas of the target compound at t0 and each time point […] were compared, resulting in “% remaining peptide”, following the equation: % remaining peptide=[(peak area peptide time)×100]/peak area peptide t0. The stability is expressed as “% remaining peptide”.
measurement.name: remaining at 4 h, 5 µM (%)

1 = Ac-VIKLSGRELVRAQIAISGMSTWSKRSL-NH2 [AcB7-33 C11.23S, reference compound]
2 = Ac-VIKLSGRELVRAQIAISGMSTWSKKKK-NH2 [KKKK(AcB7-29 C11.23S), reference compound]
Query :: Could you check which of 1 and 2 has a smaller value for remaining at 4 h, 5 µM? Selection: enter the item's label.
Result :: 1

----------
# procedure.details: Stability testing of peptides in rat plasma or blood
# Assay type: in vitro ADME
# test.conditions: rat plasma, 1 h, 37° C., read-out: Rat plasma stability % remaining 1 h
measurement.name: remaining at 1 h, 5 µM (%)

substance="Ac-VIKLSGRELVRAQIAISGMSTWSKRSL-NH2 [AcB7-33 C11.23S, reference compound]" measurement_name="remaining at 1 h, 5 µM" test_value=16

A = H-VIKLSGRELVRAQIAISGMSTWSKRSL-NH2 [B7-33 C11.23S, reference compound]
B = Ac-VIKLSGRELVRAQIAISGMSTWSKKKK-NH2 [KKKK(AcB7-29 C11.23S), reference compound]
Query :: Consider A and B . Which of these has its remaining at 1 h, 5 µM at a higher number? Mark your answer with the label of the selected entry.
Result :: B
(B: 23%, A: 15%)
